# Target: H^+ /K^+ ATPase (Sus scrofa, UniProt P19156)
# Construct: prepared from the stomach of pig; from tissue; host or cells: stomach of pig
# Sequence (P19156 2-1034 limits assumed): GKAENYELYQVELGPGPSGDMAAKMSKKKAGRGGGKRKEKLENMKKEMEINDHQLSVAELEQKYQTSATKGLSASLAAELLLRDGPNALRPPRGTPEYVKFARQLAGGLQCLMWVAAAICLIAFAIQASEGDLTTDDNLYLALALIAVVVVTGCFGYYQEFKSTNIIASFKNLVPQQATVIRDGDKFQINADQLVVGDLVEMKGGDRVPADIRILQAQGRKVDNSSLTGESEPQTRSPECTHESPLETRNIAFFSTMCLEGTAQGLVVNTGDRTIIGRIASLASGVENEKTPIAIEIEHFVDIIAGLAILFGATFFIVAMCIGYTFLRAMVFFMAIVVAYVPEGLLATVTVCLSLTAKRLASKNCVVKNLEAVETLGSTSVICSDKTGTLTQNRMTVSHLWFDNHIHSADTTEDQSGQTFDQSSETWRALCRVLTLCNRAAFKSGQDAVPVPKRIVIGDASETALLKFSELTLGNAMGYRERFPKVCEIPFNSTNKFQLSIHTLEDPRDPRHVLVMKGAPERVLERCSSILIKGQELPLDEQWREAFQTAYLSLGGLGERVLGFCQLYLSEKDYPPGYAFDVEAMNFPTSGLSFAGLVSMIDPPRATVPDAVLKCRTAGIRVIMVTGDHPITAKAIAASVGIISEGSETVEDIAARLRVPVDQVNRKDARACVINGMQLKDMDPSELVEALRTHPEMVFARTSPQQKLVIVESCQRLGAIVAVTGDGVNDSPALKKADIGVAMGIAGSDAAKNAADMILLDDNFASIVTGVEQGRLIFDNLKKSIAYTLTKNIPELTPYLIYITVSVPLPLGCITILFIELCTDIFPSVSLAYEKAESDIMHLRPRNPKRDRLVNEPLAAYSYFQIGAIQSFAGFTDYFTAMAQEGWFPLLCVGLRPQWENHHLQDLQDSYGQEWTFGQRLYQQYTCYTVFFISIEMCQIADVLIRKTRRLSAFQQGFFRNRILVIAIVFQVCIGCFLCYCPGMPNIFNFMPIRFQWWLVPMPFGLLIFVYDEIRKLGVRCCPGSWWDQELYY
# Sequence (P18434 whole entry partner): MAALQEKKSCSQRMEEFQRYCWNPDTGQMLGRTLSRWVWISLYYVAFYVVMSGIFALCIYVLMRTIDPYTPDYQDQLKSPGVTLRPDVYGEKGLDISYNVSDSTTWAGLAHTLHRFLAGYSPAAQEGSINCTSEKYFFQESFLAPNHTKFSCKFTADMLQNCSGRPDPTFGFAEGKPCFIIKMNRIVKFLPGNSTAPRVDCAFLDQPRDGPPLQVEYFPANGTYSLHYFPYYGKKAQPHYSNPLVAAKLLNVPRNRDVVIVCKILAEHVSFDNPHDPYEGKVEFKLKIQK
# Protocol description: H^+ /K^+ ATPase Inhibitory Activity Assay
# Type: biochemical, pig
# Assay setup: 10 μg/ml; read-out: H^+ /K^+ ATPase % Inhibition
Property name: inhibition at 10 µg/mL (%)
Could you give me the number in %? Just the number is fine.

c1ccc2[nH]c(CCCCCCCCc3[nH]c4ccccc4c3CCN3CCCCC3)cc2c1
91
c1ccc(CCCNCCc2c(CCCCc3[nH]c4ccccc4c3CCNCCCc3ccccc3)[nH]c3ccccc23)cc1
98
c1ccc2[nH]c(CCCCCCc3[nH]c4ccccc4c3CCN3CCCCC3)cc2c1
84

# evaluate next
Return the recorded inhibition at 10 µg/mL value; entry: `c1ccc(CCNCCc2c(CCCCc3cc4ccccc4[nH]3)[nH]c3ccccc23)cc1`
97

* * *

# Target: H^+ /K^+ ATPase (Sus scrofa, UniProt P19156)
# Construct: prepared from the stomach of pig; from tissue; host or cells: stomach of pig
# Protocol description: H^+ /K^+ ATPase Inhibitory Activity Assay
# Type: biochemical, pig
# Assay setup: 20 μg/ml
Collected inhibition at 20 µg/mL values appear next to each entry.
Answer shape: numeric part, then the unit.

A selection of reference data follows.
c1ccc(CNCCc2c(CCCCc3cc4ccccc4[nH]3)[nH]c3ccccc23)cc1
100%
c1ccc2[nH]c(CCCCc3[nH]c4ccccc4c3CCN3CCOCC3)cc2c1
68%
c1ccc(CNCCc2c(CCCCc3[nH]c4ccccc4c3CCNCc3ccccc3)[nH]c3ccccc23)cc1
76%

Return the recorded inhibition at 20 µg/mL value; entry: `c1ccc2c(CCN3CCCCC3)c(CCCCCCc3[nH]c4ccccc4c3CCN3CCCCC3)[nH]c2c1`
5%
